These measurements were taken from patent US20240247080A1.

Below, each entry is listed alongside its reported EC50, CreLuc assay, 0.5% hP.
target of assay: T1, human neuropeptide Y2 (NPY2) receptor (human, UniProt P49146 1-381)
T1 sequence (looked up): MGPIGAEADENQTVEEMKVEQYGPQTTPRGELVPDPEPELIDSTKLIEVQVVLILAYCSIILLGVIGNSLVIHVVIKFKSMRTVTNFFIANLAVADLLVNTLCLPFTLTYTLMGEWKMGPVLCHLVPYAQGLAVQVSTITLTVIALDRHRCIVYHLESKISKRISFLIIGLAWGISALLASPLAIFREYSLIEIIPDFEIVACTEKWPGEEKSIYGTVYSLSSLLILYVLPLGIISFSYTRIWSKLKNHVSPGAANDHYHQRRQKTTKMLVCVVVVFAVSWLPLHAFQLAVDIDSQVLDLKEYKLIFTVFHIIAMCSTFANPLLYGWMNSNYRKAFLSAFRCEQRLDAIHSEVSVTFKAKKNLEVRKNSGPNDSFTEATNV
measurement protocol: cell-based or functional assay
property name: EC50, CreLuc assay, 0.5% hP (nM)

{"binder": "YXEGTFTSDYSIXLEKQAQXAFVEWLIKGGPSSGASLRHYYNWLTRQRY (Aib at 2, 13, 20; DHis 39; DArg 46; DTyr 49; K28 side chain: C20DA-gGlu-gGlu-gGlu-gGlu-gGlu-gGlu-eLys; C-terminal NH2) [Compound 21]", "result unit": "nM", "comparative sign": ">", "endpoint result": 99.9}
{"binder": "YXEGTFTSDYSIXLEKQAQXAFVEWLIKGGPSSGIELRHFLNHLTRQRY (Aib at 2, 13, 20; K28 side chain: C20DA-gGlu-gGlu-gGlu-gGlu-gGlu-gGlu-eLys; C-terminal NH2) [Compound 2]", "result unit": "nM", "comparative sign": ">", "endpoint result": 100}
{"binder": "YXEGTFTSDYSIXLEKQAQXAFVEWLIKGGPSSGVSXRHYYNWLTRQRY (Aib at 2, 13, 20, 37; K28 side chain: C20DA-gGlu-gGlu-gGlu-gGlu-gGlu-gGlu-eLys; C-terminal NH2) [Compound 38]", "result unit": "nM", "comparative sign": "=", "endpoint result": 6.9}
{"binder": "YXEGTFTSDYSIXLEKQAQXAFVEWLIKGGPSSGASLRHYYNLXTRQRY (Aib at 2, 13, 20, 44; K28 side chain: C20DA-gGlu-gGlu-gGlu-gGlu-gGlu-gGlu-eLys; C-terminal NH2) [Compound 79]", "result unit": "nM", "comparative sign": "=", "endpoint result": 87.6}
{"binder": "YXEGTFTSDYSIXLEKQAQXAFVEWLIKGGPSSGASLRHYYNWLTXQRY (Aib at 2, 13, 20; hArg 46; DTyr 49; K28 side chain: C20DA-gGlu-gGlu-gGlu-gGlu-gGlu-gGlu-eLys; C-terminal NH2) [Compound 71]", "result unit": "nM", "comparative sign": ">", "endpoint result": 100}
{"binder": "YXEGTFTSDYSIXLEKQAQXAFVEWLIKGGPSEPQSIRHYYNWLTRQRY (Aib at 2, 13, 20; K28 side chain: C20DA-gGlu-gGlu-gGlu-gGlu-gGlu-gGlu-eLys; C-terminal NH2) [Compound 48]", "result unit": "nM", "comparative sign": "=", "endpoint result": 9.77}
{"binder": "YXEGTFTSDYSIXLEKQAQXAFVEWLIKGGPSYYVSLRHYYNWLTRQRY (Aib at 2, 13, 20; K28 side chain: C20DA-gGlu-gGlu-gGlu-gGlu-gGlu-gGlu-eLys; C-terminal NH2) [Compound 80]", "result unit": "nM", "comparative sign": "=", "endpoint result": 12.8}
{"binder": "YXEGTFTSDYSIXLEKQAQXAFVEWLIKGGPSSGASLRHYLNWLTRQRY (Aib at 2, 13, 20; K28 side chain: C20DA-gGlu-gGlu-gGlu-gGlu-gGlu-gGlu-eLys; C-terminal NH2) [Compound 86]", "result unit": "nM", "comparative sign": "=", "endpoint result": 23.7}
